targetEntity: Beta-secretase 1 (Homo sapiens, UniProt P56817)
Sequence (P56817 whole entry): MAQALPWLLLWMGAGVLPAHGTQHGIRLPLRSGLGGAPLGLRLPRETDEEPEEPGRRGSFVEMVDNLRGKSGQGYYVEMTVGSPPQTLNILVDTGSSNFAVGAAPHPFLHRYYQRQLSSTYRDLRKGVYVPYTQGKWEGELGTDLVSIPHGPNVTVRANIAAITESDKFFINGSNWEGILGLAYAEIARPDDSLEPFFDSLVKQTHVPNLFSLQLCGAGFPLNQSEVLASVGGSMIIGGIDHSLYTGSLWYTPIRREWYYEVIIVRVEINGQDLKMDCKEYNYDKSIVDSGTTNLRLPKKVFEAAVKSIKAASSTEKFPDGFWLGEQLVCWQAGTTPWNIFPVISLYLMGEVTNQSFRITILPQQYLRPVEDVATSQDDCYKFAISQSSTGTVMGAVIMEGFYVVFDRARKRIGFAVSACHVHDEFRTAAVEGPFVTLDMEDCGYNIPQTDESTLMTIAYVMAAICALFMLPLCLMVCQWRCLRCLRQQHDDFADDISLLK
experimentDescription: Inhibition of purified recombinant human BACE1 expressed in CHO cells assessed as uncleaved biotinylated sAPP after 2 hrs by HTRF assay
assayEndpoint: pIC50
The meaning of pIC50 here: minus log10 of the concentration in molar units.

Example cases with answers are listed next.
| compound | pIC50 |
| --- | --- |
| CN1C(=O)[C@]2(N=C1N)c1cc(-c3cccnc3F)ccc1O[C@H]1CCCO[C@@H]12 (relative stereo) | 7.32 |
| C[C@]12CCCO[C@@H]1[C@]1(CSC(N)=N1)c1cc(-c3cncc(Cl)c3)ccc1O2 (relative stereo) | 7.29 |
| C[C@]12CCCO[C@@H]1[C@]1(CSC(N)=N1)c1cc(-c3cccc(C#N)c3)ccc1O2 (relative stereo) | 7.39 |
| C[C@]12CCCO[C@@H]1[C@]1(COC(N)=N1)c1cc(-c3cccnc3F)ccc1O2 (relative stereo) | 7.12 |
| NC1=N[C@@]2(CS1)c1cc(-c3cccnc3F)ccc1O[C@@H]1CCCO[C@H]12 | 6.09 |

Okay, now this compound:
Please look up its pIC50: C[C@]12CCCO[C@@H]1[C@]1(COC(N)=N1)c1cc(-c3cccc(C#N)c3)ccc1O2 (racemic) 7.01

====

System: MDR1 (human)
experimentDescription: Efflux ratio of permeability from basolateral to apical side to apical to basolateral side in pig LLC-PK1 cells transfected with human MDR1 at 1 uM
Assay type: ADME, cell-based, Sus scrofa
particulars: LLC-PK1
Each item that follows carries a reported efflux ratio at 1 µM.
Just the number, please, no unit attached.

| molecule | efflux ratio at 1 µM |
| --- | --- |
| C[C@]12CCCO[C@@H]1[C@]1(COC(N)=N1)c1cc(-c3cncc(Cl)c3)ccc1O2 (racemic) | 7.1 |
| CN1C(=O)[C@]2(N=C1N)c1cc(-c3cccnc3F)ccc1O[C@@]1(C)CCCO[C@@H]12 (relative stereo) | 110 |
| C[C@@]12CCCO[C@H]1[C@]1(COC(N)=N1)c1cc(-c3cccnc3F)ccc1O2 (relative stereo) | 4.8 |
| CN1C(=O)[C@]2(N=C1N)c1cc(-c3cccnc3F)ccc1O[C@]1(C)CCCO[C@H]12 (relative stereo) | 31 |
| C[C@]12CCCO[C@@H]1[C@]1(CSC(N)=N1)c1cc(-c3cncc(Cl)c3)ccc1O2 (relative stereo) | 3.3 |

Form field: efflux ratio at 1 µM recorded for NC1=N[C@@]2(CS1)c1cc(-c3cccnc3F)ccc1O[C@@H]1CCCO[C@H]12 with MDR1 (human) (enter value) 1.2

What reported efflux ratio at 1 µM corresponds to C[C@]12CCCO[C@@H]1[C@]1(CSC(N)=N1)c1cc(-c3cccnc3F)ccc1O2 (relative stereo) on MDR1 (human)? 2

# query: efflux ratio at 1 µM | item C[C@]12CCCO[C@@H]1[C@]1(COC(N)=N1)c1cc(-c3cccc(C#N)c3)ccc1O2 (racemic) | system: MDR1 (human) 3.2

====

System: CHO
experimentDescription: Ratio of IC50 for cathepsin D purified from human spleen to IC50 for purified recombinant human BACE1 expressed in CHO cells
Threshold 400: Ratio IC50 strictly smaller gives label 1, otherwise label 0.

I wonder whether CN1C(=O)[C@]2(N=C1N)c1cc(-c3cccnc3F)ccc1O[C@H]1CCCO[C@@H]12 (relative stereo) has Ratio IC50 below 400. Can you tell? label 1

Is 400 strictly greater than the compound's reported Ratio IC50? compound: C[C@]12CCCO[C@@H]1[C@]1(CSC(N)=N1)c1cc(-c3cccnc3F)ccc1O2 (relative stereo) label 0

Is Ratio IC50 of C[C@]12CCCO[C@@H]1[C@]1(CSC(N)=N1)c1cc(-c3cncnc3)ccc1O2 (relative stereo) strictly below 400? label 0

Please check: Ratio IC50 for C[C@]12CCCO[C@@H]1[C@]1(COC(N)=N1)c1cc(-c3cccc(C#N)c3)ccc1O2 , strictly under 400 or not? label 0

Answer whether the compound C[C@@]12CCCO[C@H]1[C@]1(COC(N)=N1)c1cc(-c3cccnc3F)ccc1O2 (relative stereo) has Ratio IC50 strictly less than 400 label 1

Take the compound CN1C(=O)[C@]2(N=C1N)c1cc(-c3cccnc3F)ccc1O[C@@H]1CCCO[C@H]12 (relative stereo) and say whether its Ratio IC50 is less than 400. label 1

Would you kindly verify if Ratio IC50 of C[C@]12CCCO[C@@H]1[C@]1(COC(N)=N1)c1cc(-c3cccnc3F)ccc1O2 (relative stereo) is strictly less than 400? label 0

Could you please tell me whether Ratio IC50 recorded for C[C@]12CCCO[C@@H]1[C@]1(CSC(N)=N1)c1cc(-c3cncc(Cl)c3)ccc1O2 (relative stereo) is less than 400? label 0
